system.under.test: 17,20 lyase (CYP17) (Homo sapiens, UniProt P05093)
Construct: endogenous in cells; host or cells: H295R human adrenocortical carcinoma cells
protocol.summary: 17,20 lyase (CYP17) inhibition, acetic acid release assay (AARA) on H295R cells
Format: cell-based
experimental.context: human H295R adrenocortical carcinoma cells; overnight (16-19 h) with 17α-[21-3H]hydroxypregnenolone; 3H-acetic acid release; 1% DMSO; quadruplicates; read-out: CYP17 inhibition IC50
IC50 less than 20 nM is YES; IC50 greater than or equal to 20 nM is NO.

Cc1nc(N(C)C2C=C(n3ccnc3)CCC2(C)C)ccc1[N+](=O)[O-] (single isomer, unassigned) [Ex. 203 enantiomer 1] = YES
CCN(c1ccc(C#N)c(C(F)(F)F)c1)C1CC=C(c2c[nH]cn2)C1 (stereo not drawn) [Ex. 150] = YES

Does this molecule meet the criterion IC50 < 20 nM? CCN(c1cc(F)c(C#N)c(F)c1)C1CCCC(n2ccnc2)C1 (single isomer, unassigned; diastereomer 4) [Ex. 12 cis-diastereomer]
YES

Does this molecule meet the criterion IC50 < 20 nM? CCN(c1ccc(C#N)c(C(F)(F)F)c1)C1CCC(c2cnc[nH]2)C1 (stereo not drawn) [Ex. 219]
NO

Does this molecule meet the criterion IC50 < 20 nM? CN(c1ccc(C#N)c(Cl)c1)C1CC(c2c[nH]cn2)=CCC1(C)C (single isomer, unassigned) [Ex. 2 enantiomer 1]
NO

Does this molecule meet the criterion IC50 < 20 nM? CN(c1ccc(C#N)c(C(F)(F)F)c1)C1CC(c2c[nH]cn2)=CCC1(C)C (single isomer, unassigned; diastereomer 1) [Ex. 244 diastereomer 1]
NO
